# method-notes: soluble fraction after stress (log2 fold change); higher = more stays soluble; pooled small domains, quantitative proteomics
# experimental-context: stress: pH 4
Note to self: values exactly at -0.3 are yes. So soluble fraction (log2) at or above -0.3 is yes, below is no.

>  <sequence-string>
HMLSTQEYIKKNIENGSWKVGEKIPSENNLTEILGVSRASIRVAIQQFIALDVLNSIHGKGTFVKTNNIMG

>  <class-label>
yes

$$$$
>  <sequence-string>
HMSSPDMSLLYSELDVKDSGQIVTILEQRNIPYEVRNNGSQIYIPSNNVQRIRLSLAQEGLPSG

>  <class-label>
yes

$$$$
>  <sequence-string>
HMAKIDSRKALIDQLTTTFTRAQLEELITKNELSTDARFFLSQWNAKGWIRKTAKNVYEKLR

>  <class-label>
yes

$$$$
>  <sequence-string>
HMAVSTFGRITASSLNVRSGPSTDHEKVGSLAAGRVVELLEESDGWYRIENGYISTEYVTIVDPSQ

>  <class-label>
no

$$$$
>  <sequence-string>
HMQGYELKMYVTPDTKYSVAVYDAKNEMVSYTMGFSAKAPFGQEGEVLETVKLEFDKLAVGNYELKYWI

>  <class-label>
yes

$$$$
>  <sequence-string>
HMAGTPAVVKWFNPTKGFGFVTPREAGSDALLHASVLAKQGKRWLQEGTVVEVVLEEGPKGLVVSEVLTIE

>  <class-label>
no

$$$$
>  <sequence-string>
HMIKSMTGYGSAKGTVEGIEVSVELKSVNNKFLDTSIRLPRSFLFAEETIKQAVSSHISRGKVDVFVSVDS

>  <class-label>
yes

$$$$
>  <sequence-string>
HMVQIQDIAFSEFLNELEKGNILDVNIKGDLINGNMLDGKKFKTYAPYDPSLVEKLSKQNVTINVEPVN

>  <class-label>
yes

$$$$
>  <sequence-string>
HMGYPGLGSIGSKPLGDLLFQSKLFVKTKREFAEFKMANNNIVWGRRTQYLVRNYPLSVMEVFL

>  <class-label>
no

$$$$
>  <sequence-string>
HMENLVPVVVATTNIEPRTQITDAMVKVEQIPALGRNESMLEDPALVVGGYATGKIYAGQSFIQPMVSK

>  <class-label>
yes

$$$$
>  <sequence-string>
HMAARKDLIAGEDAEGRLDAWLAAALDGEFSRNRVKALIEQGAVAINDVAVTEPKRKIRPGDRLSIVLPEP

>  <class-label>
yes

$$$$
>  <sequence-string>
HMVDYYEILGVSPDASRKDIENAWRKKMREAHPDMGGSEDKAQLLNEAHKVLSDESARAEYDASR

>  <class-label>
yes

$$$$
>  <sequence-string>
HMLTLSGPEHAVVRALWPEPELDFDVLIRKTGLPSAQLMTLAMQLEMKKIIRRLPGRRLALMDDIRR

>  <class-label>
no

$$$$
>  <sequence-string>
HMSAAELFEERQRQYLRGRKSTKNIADNHGTIILRAGETITDQAIDKAKVAGKLVELVMNNE

>  <class-label>
yes

$$$$
>  <sequence-string>
HMFINITAITGNNYNTPDAARNALPNTYNKKIGLVFTYRDLTNRYRVYLYNSETSNYIPLDSYM

>  <class-label>
no

$$$$
>  <sequence-string>
HMGNIALAIARFREMIAEDPNLQPVRLHLAMALMADHQDEAARGQLEKLRSDQLPDDIRKIVDDALAALR

>  <class-label>
no

$$$$
>  <sequence-string>
HMTTQIPEEVQKRVNQFYEALDEEDYGEAKQILEELEKATAPDHPTLIQMRTRYEFDTMELR

>  <class-label>
no

$$$$
>  <sequence-string>
HMEVAAAENYRSKLSSFAKDTISVWQTELLLGTISDDDKASLTEWMAYIKALQVVDTSDPESITWPTEPT

>  <class-label>
no

$$$$
>  <sequence-string>
HMQIMVVDEADRMLDMGFIPDIERIFQLTPFTRQTLFFSATMAPEIERITDTFLHSPERIEVAR

>  <class-label>
no

$$$$
>  <sequence-string>
HMSKQQVRSILDDIPNIGETRRKALMRQFQSLEKIREASVGQLREVDGMNEKAAQSVYQFFHK

>  <class-label>
yes

$$$$
>  <sequence-string>
HMGGSIDITTAPPGAKIYLDADYYGKTPKRLENISAGTYRLHLLHPEKGEVYRSVTLNEKNGTLKIDENLN

>  <class-label>
yes

$$$$
>  <sequence-string>
HMERRDEINSVVSRYVSAITEGKYDLAEVDETGKLRVQTEGREVLPEALSRGTLEQFYFAFRMAVGSI

>  <class-label>
no

$$$$
>  <sequence-string>
HMWKQISSEAELLPAVRSVIQANPGEAEKLRNGEMAPLEFLTGLVMKKTNGMAVPQIVKTLIKKELKI

>  <class-label>
yes

$$$$
